The origin of these recorded values is the supplement of paper PMC8728848.

# test.system: Neu5Ac(a2-3)Gal(b1-3)GlcNAc(b1-4)Gal(b1-4)Glc
# measurement.protocol: glycan array binding signal (z-score within array); higher = stronger binding
# condition.summary: glycan notation: IUPAC condensed, linker removed
Only a selection was taken, and the strongest signals are over-represented in it overall.
Lab note: anything with glycan array binding signal (z-score) at or over -0.4 counts as t; the rest go in f.

- binder: "FliC (Clostridium difficile) (protein) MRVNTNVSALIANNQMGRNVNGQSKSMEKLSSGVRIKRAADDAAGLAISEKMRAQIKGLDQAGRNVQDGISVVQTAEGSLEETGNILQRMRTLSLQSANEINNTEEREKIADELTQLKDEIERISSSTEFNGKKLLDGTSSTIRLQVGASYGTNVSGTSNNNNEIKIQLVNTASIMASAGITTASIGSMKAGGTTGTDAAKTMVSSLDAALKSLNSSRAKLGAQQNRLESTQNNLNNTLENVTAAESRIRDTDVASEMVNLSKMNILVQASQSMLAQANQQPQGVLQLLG"
  class: "t"
- binder: "F17-L (Escherichia coli) (protein) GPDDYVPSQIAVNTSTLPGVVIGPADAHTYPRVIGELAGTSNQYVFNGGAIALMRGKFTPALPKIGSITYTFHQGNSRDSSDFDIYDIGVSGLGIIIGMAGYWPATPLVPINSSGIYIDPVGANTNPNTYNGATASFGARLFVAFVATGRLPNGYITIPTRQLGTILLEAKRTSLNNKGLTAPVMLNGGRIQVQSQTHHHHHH"
  class: "t"
- binder: "SfaEH (Escherichia coli), Q1RDG5 (protein) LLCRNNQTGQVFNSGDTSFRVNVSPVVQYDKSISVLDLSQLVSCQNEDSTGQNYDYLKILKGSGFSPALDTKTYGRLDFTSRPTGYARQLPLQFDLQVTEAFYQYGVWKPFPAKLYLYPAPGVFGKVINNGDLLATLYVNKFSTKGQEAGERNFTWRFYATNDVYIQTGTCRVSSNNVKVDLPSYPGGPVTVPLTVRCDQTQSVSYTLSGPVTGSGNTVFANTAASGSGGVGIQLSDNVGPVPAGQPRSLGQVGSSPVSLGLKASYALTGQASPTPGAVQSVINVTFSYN"
  class: "f"
- binder: "Epa6 (Candida glabrata), Q6DTM7_CANGB (protein) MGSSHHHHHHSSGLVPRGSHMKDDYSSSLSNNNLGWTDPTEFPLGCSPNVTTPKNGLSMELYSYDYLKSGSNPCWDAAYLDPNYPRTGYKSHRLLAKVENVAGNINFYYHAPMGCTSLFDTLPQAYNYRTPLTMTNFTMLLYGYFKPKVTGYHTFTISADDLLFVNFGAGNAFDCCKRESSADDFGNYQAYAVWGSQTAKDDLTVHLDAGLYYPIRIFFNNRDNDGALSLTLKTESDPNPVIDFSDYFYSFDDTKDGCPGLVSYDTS"
  class: "t"
